# TEST DESCRIPTION: In vitro stability in cerebrospinal fluid
# Type: in vitro ADME
# CONDITION NOTES: cerebrospinal or other body fluid; pooled male Wistar Hannover rat cerebrospinal fluid, 37 °C; 4 µl 0.50 mM peptide + 10 µl CSF; after 4 h; HPLC A280; n = 2–3; read-out: Peptide retrieved in CSF

| COMPOUND | remaining at 4 h, 143 µM |
| --- | --- |
| CC(C)C[C@H](NC(=O)[C@H](CC(C)C)NC(=O)[C@H](Cc1ccc(O)cc1)NC(=O)CNC(=O)[C@H](C)NC(=O)[C@H](CO)NC(=O)[C@H](CC(N)=O)NC(=O)[C@H](CC(C)C)NC(=O)[C@@H](NC(=O)[C@H](Cc1c[nH]c2ccccc12)NC(=O)CN)[C@@H](C)O)C(=O)NCC(=O)N1CCC[C@H]1C(=O)N[C@@H](Cc1c[nH]cn1)C(=O)N[C@@H](C)C(N)=O [GAL-(1–15), reference compound] | < 4% |

---

# TESTED TARGET: GAL2R (Homo sapiens, UniProt O43603)
# Sequence (O43603 whole entry, species assumed): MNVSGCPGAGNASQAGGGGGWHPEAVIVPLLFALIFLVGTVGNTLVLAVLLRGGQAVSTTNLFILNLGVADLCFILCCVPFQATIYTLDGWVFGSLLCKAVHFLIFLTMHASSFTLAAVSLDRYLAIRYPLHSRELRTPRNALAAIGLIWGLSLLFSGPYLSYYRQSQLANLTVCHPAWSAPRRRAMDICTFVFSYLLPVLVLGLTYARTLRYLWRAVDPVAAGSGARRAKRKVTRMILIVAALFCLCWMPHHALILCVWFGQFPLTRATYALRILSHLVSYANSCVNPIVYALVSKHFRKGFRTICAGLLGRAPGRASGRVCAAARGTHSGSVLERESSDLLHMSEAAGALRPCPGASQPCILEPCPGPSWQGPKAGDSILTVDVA
# TEST DESCRIPTION: Fluo-4 Direct calcium assay (Ca efflux) in HEK293 cells overexpressing GAL2R
# Type: cell-based
# CONDITION NOTES: Table 3; HEK293 cells stably overexpressing GAL2R; Fluo-4, from 10 µM; (average) ratio, (n) in cell = number of assays; NA = ratio above 1000
# Procedure: Calcium efflux was measured by using a Fluo-4 Direct Calcium Assay purchased from Thermo Fisher Scientific. […] The next day, when the cells were nearly confluent, an equal amount of 2 × Fluo-4 Direct™ calcium reagent loading solution, containing 5 mM probenecid, was added to the wells, and the plate was incubated for 1 h at 37 °C. […] After 1–2 h of incubation at room temperature, the fluorescence was measured with excitation at 485/20 nm and emission at 528/20 nm with a Synergy HT Biotek reader.
Square brackets hold non-standard residues; d marks the D form. Ends that are not written are not given here. pGlu = O=C1CC[C@@H](C(=O)O)N1
Below, each of the substances is paired with its reported EC50 ratios to Gal-(1-15), GAL2R Ca-efflux value.
QUANTITY: EC50 ratios to Gal-(1-15), GAL2R Ca-efflux

| SUBSTANCE | OBSERVED |
| --- | --- |
| [pGlu]WNLNAAGYLLGATAVCNH (also: sidechain bridge or staple (positions not given here)) [Variant M54tr, pyroglutamate- and methyllanthionine-containing galanin variant] | 1.2 (2) |
| GWNLNAAGYLLGATAVCNHR (also: sidechain bridge or staple (positions not given here)) [Variant M51, methyllanthionine-containing galanin variant produced in L. lactis] | 2.9 (2) |
| [pGlu]WNLNAAGYLLGATAVC (also: sidechain bridge or staple (positions not given here)) [Variant M91, pyroglutamate- and methyllanthionine-containing galanin variant] | 1.3 (1) |
| GWNLNAAGYLLGPTAVC (also: sidechain bridge or staple (positions not given here)) [Variant M85, methyllanthionine-containing galanin variant produced in L. lactis] | 4.7 (1) |

---

# TEST DESCRIPTION: In vitro stability in rat serum
# Format: in vitro ADME
# CONDITION NOTES: rat, serum, pH 7.4
# Protocol: At various time points (0, 30, 90, 270, and 1410 min), 180 µl of samples were quenched with 10 µl 10% TFA and 20 µl 100% ACN. Samples were centrifuged and kept on ice. The amount of full-length peptides in the serum was analyzed using a C12 column (C12 RP 250 × 4.60 mm column, Phenomenex) on a JASCO HPLC system and applying a gradient of 10–90% ACN in 0.1% TFA for 45 min. Peptides were detected at 280 nm. […] Peptide peaks were determined using JASCO-Borwin Chromatography software (v1.50).
Numbered stars: 1 amine (or outer) side, 2 acyl side, 3 side chain; on linkers, the order of the positions; unused ones are H or OH. Bridge positions count the residues as written; N and C are the ends. Square brackets hold non-standard residues; d marks the D form. Peptide text beside a SMILES is read from it. dAbu(3S-yl) = C[C@@H]([C@@H](N[*:1])C(=O)[*:2])[*:3]; pGlu = O=C1CC[C@@H](C(=O)O)N1
QUANTITY: metabolised at 23.5 h, 10 µM

| MOLECULE | OBSERVED |
| --- | --- |
| CC(C)C[C@H](NC(=O)[C@H](CC(C)C)NC(=O)[C@H](Cc1ccc(O)cc1)NC(=O)CNC(=O)[C@H](C)NC(=O)[C@H](C)NC(=O)[C@H](CC(N)=O)NC(=O)[C@H](CC(C)C)NC(=O)[C@H](CC(N)=O)NC(=O)[C@H](Cc1c[nH]c2ccccc12)NC(=O)[C@@H]1CCC(=O)N1)C(=O)N[C@@H](C)C(=O)N[C@H]1C(=O)N[C@@H](Cc2c[nH]cn2)C(=O)N[C@@H](C)C(=O)N[C@H](C(=O)NCC(=O)O)CS[C@H]1C [Variant M89b] ([pGlu]WNLNAAGYLLA[dAbu(3S-yl)]HACG-OH; thioether 13-16; C-terminus assumed) | 40% |

---

# TESTED TARGET: GAL1R (Homo sapiens, UniProt P47211)
# Sequence (P47211 1-349): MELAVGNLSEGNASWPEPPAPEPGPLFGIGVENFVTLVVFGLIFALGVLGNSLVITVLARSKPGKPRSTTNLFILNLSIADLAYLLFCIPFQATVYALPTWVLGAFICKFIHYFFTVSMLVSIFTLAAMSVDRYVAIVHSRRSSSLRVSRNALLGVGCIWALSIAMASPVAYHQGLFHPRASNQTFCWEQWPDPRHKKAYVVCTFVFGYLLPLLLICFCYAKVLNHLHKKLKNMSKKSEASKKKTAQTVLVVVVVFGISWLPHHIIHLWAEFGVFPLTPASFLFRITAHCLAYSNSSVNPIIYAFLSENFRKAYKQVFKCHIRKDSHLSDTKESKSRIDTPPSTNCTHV
# TEST DESCRIPTION: PathHunter eXpress β-arrestin recruitment assay, GAL1R
# Format: cell-based
# Set-up: expressed in transfected cells
# CONDITION NOTES: Table 3; CHO-K1 cells co-expressing GAL1R and β-arrestin 2; 10 µM to 5 nM; (average) ratio, (n) in cell = number of assays; NA = ratio above 1000
# Method: To evaluate the ability of lanthipeptides to recruit ß-arrestins via GAL1R or via GAL2R, we used the PathHunter® eXpress GAL1R, CHO-K1, β-arrestin GPCR Assay and the PathHunter® eXpress GAL2R, CHO-K1, β-arrestin, GPCR Assay from Eurofins-DiscoverX. […] Next, 55 µL of Working Detection Solution was added, and after 1 h of incubation at room temperature in the dark, the chemiluminescent signal was read with a Synergy HT Biotek reader.
Square brackets hold non-standard residues; d marks the D form. Ends that are not written are not given here. pGlu = O=C1CC[C@@H](C(=O)O)N1
QUANTITY: EC50 ratios to Gal-(1-15), GAL1R ß-Arrestin

| SUBSTANCE | OBSERVED |
| --- | --- |
| GWNLNAAGYLLGATAVC (also: sidechain bridge or staple (positions not given here)) [Variant M90, methyllanthionine-containing galanin variant produced in L. lactis] | 2.7 (1) |
| GWNLNAAGYLLGTHACG (also: sidechain bridge or staple (positions not given here)) [Variant M84, methyllanthionine-containing galanin variant produced in L. lactis] | 35 (1) |
| GWNLNAAGYLLGPTAVC (also: sidechain bridge or staple (positions not given here)) [Variant M85, methyllanthionine-containing galanin variant produced in L. lactis] | 18.0 (1) |
| [pGlu]WNLNAAGYLLGPHTVGCHR (also: sidechain bridge or staple (positions not given here)) [Variant M83, pyroglutamate- and methyllanthionine-containing galanin variant] | 123 (1) |
